- System: Wolbachia pipientis
- test: Anti-Wolbachia Cell-Based Screen
- Assay type: functional
- Design: scale not given: in the data most compounds retested in dose-response had high values
- test parameters: 5 µM
Hit rate of the full screen: of about 48,000 compounds, about 13,000 (27%) showed an effect of 50% or more. This is one part of the list.
Hi! Just check whether Percent Effect is below -10%. Below gives 1, equal or above gives 0.

1. CCS(=O)(=O)N1C[C@@H](C(=O)NC(C)C)[C@@]2(Cc3ccccc3C(=O)N2)C1	0
2. Cc1nc(C)n(CC2CCCCN2CCS(C)(=O)=O)n1 (configuration not stated)	0
3. Cc1ccc(C(=O)NCCC2CCN(C)CC2)cc1N(C)S(C)(=O)=O	1
4. COC(=O)c1ccoc1CN(C)CC(=O)NC1CC1	0
5. O=C(NCCOc1ccc(F)c(F)c1)NCc1ccncc1	1
6. CCN1CCN(c2ccc(F)cc2C(C)NCc2ccncc2)CC1 (configuration not stated)	0
7. Cc1nc(C)n(CC2CCCN(CC(=O)Nc3c(C)n[nH]c3C)C2)n1 (configuration not stated)	1
